Assay: Cytotoxicity against human A549 cells assessed as cell viability at 100 uM by MTT assay relative to control
Format: cell-based
Settings: read-out: Activity
value-type: viability at 100 µM (%)

| molecule | units | value-measured |
| --- | --- | --- |
| C=CCSc1nsc(NC(=O)Nc2ccc(F)cc2F)n1 | % | 31.3 |
| C=CCSc1nsc(NC(=O)Nc2cccc(C(C)=O)c2)n1 | % | 21.6 |
| C=CCSc1nsc(NC(=O)Nc2ccc(Cl)cc2)n1 | % | 15.1 |
| COc1ccc(CCCn2ncc3c2nc(N)n2nc(-c4ccco4)nc32)cc1 | % | 41.6 |
| COc1ccc([C@@H]2CNC(=O)C2)cc1OC1CCCC1 [(-)-ROLIPRAM] | % | 39.1 |
| C#CCSc1nsc(NC(=O)Nc2ccc(Cl)c(C(F)(F)F)c2)n1 | % | 18 |

====

Test: Cytotoxicity against human A549 cells assessed as cell viability at 10 uM by MTT assay relative to control
Type: cell-based
Conditions: read-out: Activity

| compound-structure | viability at 10 µM (%) |
| --- | --- |
| COc1ccc(CCCn2ncc3c2nc(N)n2nc(-c4ccco4)nc32)cc1 | 77.2 |
| COc1ccc([C@H]2CNC(=O)C2)cc1OC1CCCC1 | 97 |
| C=CCSc1nsc(NC(=O)Nc2ccc(F)cc2F)n1 | 90.2 |

====

Test: Cytotoxicity against human A549 cells assessed as cell viability at 0.1 uM by MTT assay relative to control
Format: cell-based
Conditions: read-out: Activity

| compound-structure | viability at 0.1 µM (%) |
| --- | --- |
| C=CCSc1nsc(NC(=O)Nc2cccc(C(C)=O)c2)n1 | 104 |
| C=CCSc1nsc(NC(=O)Nc2ccc(F)cc2F)n1 | 100 |
| COc1ccc(C2CNC(=O)NC2)cc1O[C@@H]1C[C@H]2CC[C@H]1C2 | 96.6 |
| C=CCSc1nsc(NC(=O)Nc2ccc(Cl)cc2)n1 | 100 |
| Nc1nc(NCCc2ccc(O)cc2)nc2nc(-c3ccco3)nn12 | 107 |
| CCCn1c(=O)[nH]c2nc(-c3ccc(S(=O)(=O)N4CCN(c5ccc(Cl)cc5)CC4)cc3)[nH]c2c1=O | 97.7 |

====

Assay: Cytotoxicity against human A549 cells assessed as cell viability at 100 uM by MTT assay relative to control
Type: cell-based
Details: read-out: Activity
Simple rule here: viability at 100 µM less than 40% is yes (1), otherwise no (0).

| molecule | group |
| --- | --- |
| O=S(=O)(c1c(F)c(F)c(F)c(F)c1F)N1CCN(c2ccccc2)CC1 | yes (1) |
| O[C@H]1CC[C@H](Nc2nc(-c3ccccc3)nc3[nH]ccc23)CC1 | no (0) |
| COc1ccc(C2CNC(=O)C2)cc1OC1CCCC1 (stereo not given) | no (0) |
| COCCOc1ccc(N2CCN(CCn3ncc4c3nc(N)n3nc(-c5ccco5)nc43)CC2)cc1 | yes (1) |
| COc1ccc(C2CNC(=O)NC2)cc1O[C@@H]1C[C@H]2CC[C@H]1C2 | no (0) |
| CCCOc1cc([C@]2(C)CNC(=O)O2)ccc1OC | no (0) |
| O=C(Nc1nc(SCCOc2ccccc2)ns1)Nc1ccc(F)cc1F | yes (1) |
| C#CCSc1nsc(NC(=O)Nc2ccccc2Cl)n1 | yes (1) |
| C=CCSc1nsc(NC(=O)Nc2ccc(Cl)cc2C(F)(F)F)n1 | no (0) |

====

Recorded viability at 0.1 µM, one value per entry.
Experiment: Cytotoxicity against human A549 cells assessed as cell viability at 0.1 uM by MTT assay relative to control
Type: cell-based
Conditions: read-out: Activity
value-type: viability at 0.1 µM (%)

| molecule | value-measured |
| --- | --- |
| COc1ccc(C2CNC(=O)C2)cc1OC1CCCC1 (stereo not given) | 107 |
| CCCOc1cc([C@]2(C)CNC(=O)O2)ccc1OC | 101 |
| O[C@H]1CC[C@H](Nc2nc(-c3ccccc3)nc3[nH]ccc23)CC1 | 106 |
| COc1ccc([C@@H]2CNC(=O)C2)cc1OC1CCCC1 [(-)-ROLIPRAM] | 95.7 |
| C#CCSc1nsc(NC(=O)Nc2ccc(Cl)c(C(F)(F)F)c2)n1 | 99.8 |
| C=CCSc1nsc(NC(=O)Nc2ccc(Cl)cc2C(F)(F)F)n1 | 102 |
| COCCOc1ccc(N2CCN(CCn3ncc4c3nc(N)n3nc(-c5ccco5)nc43)CC2)cc1 | 109 |
| COc1ccc([C@H]2CNC(=O)C2)cc1OC1CCCC1 | 96.5 |
| O=C(Nc1nc(SCCOc2ccccc2)ns1)Nc1ccc(F)cc1F | 96.2 |
| O=S(=O)(c1c(F)c(F)c(F)c(F)c1F)N1CCN(c2ccccc2)CC1 | 93.1 |

====

Assay: Cytotoxicity against human A549 cells assessed as cell viability at 10 uM by MTT assay relative to control
Assay type: cell-based
Details: read-out: Activity
Recorded viability at 10 µM, one value per entry.

| compound | viability at 10 µM [%] |
| --- | --- |
| O=S(=O)(c1c(F)c(F)c(F)c(F)c1F)N1CCN(c2ccccc2)CC1 | 77 |
| O[C@H]1CC[C@H](Nc2nc(-c3ccccc3)nc3[nH]ccc23)CC1 | 98.5 |
| C=CCSc1nsc(NC(=O)Nc2ccc(Cl)cc2C(F)(F)F)n1 | 95.8 |
| C=CCSc1nsc(NC(=O)Nc2ccc(Cl)cc2)n1 | 51.2 |
| Nc1nc(NCCc2ccc(O)cc2)nc2nc(-c3ccco3)nn12 | 77.8 |
| O=C(Nc1nc(SCCOc2ccccc2)ns1)Nc1ccc(F)cc1F | 95.5 |
| COc1ccc(C2CNC(=O)NC2)cc1O[C@@H]1C[C@H]2CC[C@H]1C2 | 94.3 |
| COc1ccc([C@@H]2CNC(=O)C2)cc1OC1CCCC1 [(-)-ROLIPRAM] | 92.5 |
| COCCOc1ccc(N2CCN(CCn3ncc4c3nc(N)n3nc(-c5ccco5)nc43)CC2)cc1 | 57 |
| C=CCSc1nsc(NC(=O)Nc2cccc(C(C)=O)c2)n1 | 96.7 |

====

Assay: Cytotoxicity against human A549 cells assessed as cell viability at 1 uM by MTT assay relative to control
Format: cell-based
Settings: read-out: Activity

| compound-structure | viability at 1 µM [%] |
| --- | --- |
| C=CCSc1nsc(NC(=O)Nc2ccc(F)cc2F)n1 | 100 |
| COc1ccc([C@H]2CNC(=O)C2)cc1OC1CCCC1 | 105 |
| C=CCSc1nsc(NC(=O)Nc2ccc(Cl)cc2C(F)(F)F)n1 | 104 |
| COc1ccc(CCCn2ncc3c2nc(N)n2nc(-c4ccco4)nc32)cc1 | 106 |
| CN1CCCC1=O | 102 |
| O=S(=O)(c1c(F)c(F)c(F)c(F)c1F)N1CCN(c2ccccc2)CC1 | 103 |

Origin of the recorded values: ChEMBL document CHEMBL4184095
